Measured target: T1, human PrRP receptor, GPR10, transfected in CHO cells (human, UniProt P49683 1-370)
T1 construct: whole, on cells; also called human GPR10 receptor; the human receptor GPR10 in CHO cells
T1 sequence (looked up): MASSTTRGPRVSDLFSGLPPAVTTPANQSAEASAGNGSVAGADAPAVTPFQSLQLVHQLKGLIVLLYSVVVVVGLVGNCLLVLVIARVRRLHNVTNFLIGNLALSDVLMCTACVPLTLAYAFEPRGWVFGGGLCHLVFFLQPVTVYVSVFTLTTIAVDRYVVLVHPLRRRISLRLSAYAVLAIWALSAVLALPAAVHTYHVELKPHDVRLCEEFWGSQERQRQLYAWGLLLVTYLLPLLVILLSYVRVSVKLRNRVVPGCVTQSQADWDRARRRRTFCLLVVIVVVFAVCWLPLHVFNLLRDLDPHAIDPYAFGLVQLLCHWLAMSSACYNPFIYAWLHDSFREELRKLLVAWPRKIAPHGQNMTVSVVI
Protocol text: competition with 125I-human PrRP31 on CHO cells with transfected human GPR10
Where no end group is shown, it is not given here. [ ]: non-standard residue; d: D form. The star is where a group is joined. Phe(F5) = N[C@@H](Cc1c(F)c(F)c(F)c(F)c1F)C(=O)O; 1Nal = N[C@@H](Cc1cccc2ccccc12)C(=O)O; Stearoyl = CCCCCCCCCCCCCCCCCC(=O)*; Palmitoyl = CCCCCCCCCCCCCCCC(=O)*; Myristoyl = CCCCCCCCCCCCCC(=O)*; PheCl2 = dichlorophenylalanine; PheNO2 = nitrophenylalanine; Nle = CCCC[C@H](N)C(=O)O; Octanoyl = CCCCCCCC(=O)*
# note: boundary value 2 nM maps to N; Ki below it maps to Y

Is it true that Ki reported for Octanoyl-SRAHQHS[Nle]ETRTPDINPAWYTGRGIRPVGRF-NH2 [analog no. 15] is less than 2 nM?
Y

Repeat with Myristoyl-SRAHQHS[Nle]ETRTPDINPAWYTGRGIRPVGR[1Nal]-NH2 [analog no. 22]
Y

Same again, this time with Palmitoyl-SRAHQHS[Nle]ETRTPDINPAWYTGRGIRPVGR[1Nal]-NH2 [analog no. 23]
N

Same thing, different binder: Myristoyl-SHQRPADTHWYPRG[Nle]FPTIGRITARNGEVSR (printed without a C-terminal amide) [analog no. 31]
N

Similarly, Palmitoyl-SRAHQHS[Nle]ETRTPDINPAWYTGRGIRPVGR[Phe(F5)]-NH2 [analog no. 33] ?
Y

Same read-out for Stearoyl-SRAHQHS[Nle]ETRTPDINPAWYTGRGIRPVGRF-NH2 [analog no. 20] ?
N

Input TPDINPAWYASRPFRPVGRF-NH2 [analog no. 44]
Y

Repeat for the following binder: SRAHQHS[Nle]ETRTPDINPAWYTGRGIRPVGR[PheNO2]-NH2 [analog no. 27]
N

Can you handle Myristoyl-SRAHQHS[Nle]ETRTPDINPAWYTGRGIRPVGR[PheCl2]-NH2 [analog no. 25] next?
Y

Would you mind doing Palmitoyl-SRAHQHS[Nle]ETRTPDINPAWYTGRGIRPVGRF-NH2 [analog no. 19] as well?
N

Quick one: Myristoyl-SRAHQHS[Nle]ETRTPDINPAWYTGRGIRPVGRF-NH2 [analog no. 18]
Y

Source: patent US9937235B2
